Tested on: HT29
Experiment: Proliferation assay HT29
Type: cell-based
Conditions: Homo sapiens, HT-29, 96 h; HT29, colon/rectum carcinoma; 4 days, crystal violet
metric_name: IC50 (nM)

In [3]: df
Out[3]:
                                   molecule  quantitative_result
0  C[C@@H](O)[C@@H](C)Oc1nc(Nc2ccc(S(=N)(=O)C3CC3)cc2)ncc1C(F)(F)F (mixture of isomers)                   29

I = C[C@@H](O)[C@@H](C)Oc1nc(Nc2ccc(S(C)(=N)=O)cc2)ncc1C(F)(F)F (single isomer, unassigned)
II = C[C@@H](O)[C@@H](C)Nc1nc(Nc2ccc(S(=N)(=O)C3CC3)cc2)ncc1C(F)(F)F (mixture of isomers)
# query: argmin of IC50 over I and II Bench note: the answer is the label of the chosen record. II
